Hey, just so you know, these numbers are from patent US12391685B2.

Quick reference for pEC50 among some molecules
- experimental target: dCas9-based transcription-activation complex (Streptococcus pyogenes serotype M1, UniProt Q99ZW2, D10A, form not given)
- Construct: "dSpCas9|Feng Zhang lab|NA"; The MS2-p65-HSF1(-GFP) effector is a separate chain recruited through MS2 aptamers in the sgRNA
- protocol summary: dCas9-based transcription activation of HBG1 in HEK293FT cells (RT-qPCR)
- particulars: read-out: EC50, inhibition of the transcription activation complex
pEC50: −log10 of the molar value.

- smiles: "CN1c2ccc(C#Cc3cccnc3)cc2[C@H]2[C@H](CCN2C(=O)Nc2cc(F)ccc2F)[C@@H]1CO"
  pEC50: 5.05
- smiles: "CN1c2ccc(C#Cc3cccnc3)cc2[C@@H]2[C@@H](CCN2C(=O)C2CCCCC2)[C@H]1CO"
  pEC50: 4.91

----------
- experimental target: SpCas9 (Streptococcus pyogenes serotype M1)
- protocol summary: eGFP-disruption assay in U2OS.eGFP.PEST cells
- Format: cell-based, S. pyogenes
- Parameters: host or cells: U2OS.eGFP.PEST
- particulars: EC50, dose-dependent inhibition of SpCas9, U2OS.eGFP.PEST cells, 24 h, tested from 2.8-17.3 μM

- smiles: "Cc1ccc(S(=O)(=O)N2CC[C@@H]3[C@H](CO)Nc4ccc(-c5ccccc5F)cc4[C@@H]32)cc1"
  experimental target: "SpCas9 (Streptococcus pyogenes serotype M1)"
  output unit: "µM"
  EC50: 11.5
- smiles: "COc1cccc(-c2ccc3c(c2)[C@H]2[C@H](CCN2C(=O)Cc2ccncc2)[C@H](CO)N3C)c1"
  experimental target: "SpCas9 (Streptococcus pyogenes serotype M1)"
  output unit: "µM"
  EC50: 9.3

----------
- experimental target: SpCas9 (Streptococcus pyogenes serotype M1, UniProt Q99ZW2)
- protocol summary: eGFP-disruption assay in U2OS.eGFP.PEST cells
- Format: cell-based, S. pyogenes
- Design: host or cells: U2OS.eGFP.PEST
- particulars: screen of structural analogs of BRD7087; 15 μM compound, 24 h, U2OS.eGFP.PEST cells
- Procedure: SpCas9 nuclease activity in eGFP-disruption assay. […] Images were analyzed using MetaXpress software and data were plotted using GraphPad Prism 6. The Z′-value was calculated using the equation (1), where σ1 and σ2 are the standard deviations of DMSO control and SpCas9:gRNA control respectively. μ1 and μ2 are the mean % GFP^− cell population for DMSO control and SpCas9:gRNA control, respectively.
Assign Yes to entries whose Inhibition activity Rep 2 meets or exceeds 60; assign No to the rest.

- compound: "CN1c2ccc(C#Cc3cccnc3)cc2[C@H]2[C@H](CCN2C(=O)C2CCCCC2)[C@@H]1CO [BRD-K89354425]"
  label: "Yes"
- compound: "CCC(=O)N1CC[C@H]2[C@@H]1c1cc(C#Cc3ccccc3OC)ccc1N(C)[C@H]2CO [BRD-K31513357]"
  label: "Yes"
- compound: "CN(C)C(=O)c1cccc(-c2ccc3c(c2)[C@@H]2[C@@H](CCN2C(=O)c2ccc4c(c2)OCO4)[C@@H](CO)N3)c1 [BRD-K83829793]"
  label: "No"
- compound: "CCC(=O)N1CC[C@@H]2[C@H]1c1cc(C#Cc3ccc(F)cc3)ccc1N[C@@H]2CO [BRD-K49114971]"
  label: "Yes"
- compound: "O=C(C1CCCCC1)N1CC[C@@H]2[C@H]1c1cc(C#Cc3ccc(F)cc3)ccc1N[C@@H]2CO [BRD-K88933335]"
  label: "No"
- compound: "Cc1ccccc1S(=O)(=O)N1CC[C@@H]2[C@H](CO)N(C)c3ccc(C#Cc4ccc(F)cc4)cc3[C@@H]21 [BRD-K11385710]"
  label: "No"
- compound: "COc1ccccc1C#Cc1ccc2c(c1)[C@H]1[C@H](CCN1C(=O)c1cccc(F)c1)[C@H](CO)N2 [BRD-K83261893]"
  label: "No"
- compound: "COc1ccc(C#Cc2ccc3c(c2)[C@@H]2[C@@H](CCN2Cc2nccs2)[C@@H](CO)N3)cc1 [BRD-K70808105]"
  label: "No"
- compound: "C/C=C/c1ccc2c(c1)[C@H]1[C@H](CCN1C(=O)c1ccc(F)cc1)[C@H](CO)N2 [BRD-K81261525]"
  label: "Yes"
- compound: "COc1cccc(S(=O)(=O)N2CC[C@@H]3[C@H](CO)N(C)c4ccc(C#Cc5cccnc5)cc4[C@@H]32)c1 [BRD-K29966477]"
  label: "Yes"
- compound: "CN1c2ccc(C#Cc3cccnc3)cc2[C@H]2[C@H](CCN2C(=O)C2CCCCC2)[C@H]1CO [BRD-K11970601]"
  label: "No"
- compound: "OC[C@@H]1Nc2ccc(C#Cc3cccnc3)cc2[C@H]2NCC[C@@H]12 [BRD-K71200053]"
  label: "Yes"
- compound: "O=C(c1ccc(F)cc1)N1CC[C@@H]2[C@H]1c1cc(C#Cc3ccccc3F)ccc1N[C@@H]2CO [BRD-K79906422]"
  label: "No"
- compound: "OC[C@@H]1Nc2ccc(-c3ccccc3)cc2[C@@H]2[C@H]1CCN2Cc1ccc(F)cc1 [BRD-K90247032]"
  label: "No"
- compound: "CN1c2ccc(-c3cccc(C#N)c3)cc2[C@H]2[C@H](CCN2C(=O)C2CCCCC2)[C@H]1CO [BRD-K53346571]"
  label: "No"
- compound: "CN1c2ccc(-c3ccccc3F)cc2[C@@H]2[C@@H](CCN2C(=O)NC2CCCCC2)[C@H]1CO [BRD-K80765942]"
  label: "No"
- compound: "O=S(=O)(c1ccc(F)cc1)N1CC[C@@H]2[C@H](CO)Nc3ccc(C#CC4CC4)cc3[C@@H]21 [BRD-K47320872]"
  label: "No"
- compound: "COc1cccc(-c2ccc3c(c2)[C@@H]2[C@@H](CCN2C(=O)c2cnccn2)[C@@H](CO)N3)c1 [BRD-K11943259]"
  label: "Yes"
- compound: "N#Cc1ccc(-c2ccc3c(c2)[C@H]2[C@H](CCN2C(=O)Cc2ccccc2)[C@@H](CO)N3)cc1 [BRD-K63155325]"
  label: "No"
